B1: CPEB3 Ribozyme (parent)
chain: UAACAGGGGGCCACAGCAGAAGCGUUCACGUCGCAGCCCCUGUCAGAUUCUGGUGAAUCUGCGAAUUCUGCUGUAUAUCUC

- Variants of: B1
- measurementProtocol: self-cleavage, relative activity (ratio to wild type); higher = more cleavage; in vitro, sequencing
observationType: self-cleavage

Take a look at these entries with their results.
A18G A47U; 0.44
C37A U49C; 0.11
U1A C81U; 1.11

Fill in self-cleavage for record G46C U76A 0.22

Fill in self-cleavage for record U31A U72C 0.66

Fill in self-cleavage for record U26C U72G 0.41
